Ref: the supplement of paper PMC9170038

Please provide measured apparent KD of MS2 coat protein for the entries that follow.
tested on: MS2 coat protein; assay: apparent KD of MS2 coat protein; designed switch direction (-1 OFF switch, 1 ON switch): -1; higher = weaker reporter binding; details: Eterna round: R95; input ligand: none
Kindly answer with a numeric value in nM, unit omitted.

[ask] Lookup: apparent KD of MS2 coat protein / MS2 coat protein / GGUUGGCGAGGAUAUACAUGAGGAUCACCCAUGUCAGAGAAAAAAGUGAGGAAGAAAAGUAGAAGGCGCUGACG [salish99_ex3_r3_017] (puzzle: Exclusion 3)
[reply] 118

[ask] Also CUGAGCAGACGGAGAUCCAACAUGAGGAUCACCCAUGUCUCAAAAGCUUUUUGCUCAUCUUAUCGUACCUUGGUGCU [JL ViennaUCT Edcesobi mod 1] (puzzle: Sensor v3, turn-off variant 1) ?
[reply] 445

[ask] Also AGAGUGUGAGGAUAUAUGGUGAAGAUGAAGAAAGAGAAGGAGUAGAAGGUACAUGAGGAUCACCCAUGUUGAGG [JR_Exclu4_Sub071] (puzzle: Exclusion 4) ?
[reply] 45.5

[ask] Also GAAAACCUAGGAUAUACAUGAGGAUCACCCAUGUGAAAACCUCUUAAAACUUAACAAUGUAGAAGGAGGAAAAC [Azaqure] (puzzle: Exclusion 3) ?
[reply] 38.3

[ask] Also GGUACUAACACGAUAGUGUUAGUACUAUAAGCUUGUGUUACAUGAGGAUCACCCAUGUCCUCAUAAGCUCGUCUUGA [Mat - Sensor v3 - Turn-off var 2 - D91] (puzzle: Sensor v3, turn-off variant 2) ?
[reply] 36
